- measurement_target: glutamate-activated channels of the GRIN1/2A subtype (Homo sapiens (Human), UniProt Q05586+Q12879)
- Sequence (Q12879 23-1464, other chains not shown): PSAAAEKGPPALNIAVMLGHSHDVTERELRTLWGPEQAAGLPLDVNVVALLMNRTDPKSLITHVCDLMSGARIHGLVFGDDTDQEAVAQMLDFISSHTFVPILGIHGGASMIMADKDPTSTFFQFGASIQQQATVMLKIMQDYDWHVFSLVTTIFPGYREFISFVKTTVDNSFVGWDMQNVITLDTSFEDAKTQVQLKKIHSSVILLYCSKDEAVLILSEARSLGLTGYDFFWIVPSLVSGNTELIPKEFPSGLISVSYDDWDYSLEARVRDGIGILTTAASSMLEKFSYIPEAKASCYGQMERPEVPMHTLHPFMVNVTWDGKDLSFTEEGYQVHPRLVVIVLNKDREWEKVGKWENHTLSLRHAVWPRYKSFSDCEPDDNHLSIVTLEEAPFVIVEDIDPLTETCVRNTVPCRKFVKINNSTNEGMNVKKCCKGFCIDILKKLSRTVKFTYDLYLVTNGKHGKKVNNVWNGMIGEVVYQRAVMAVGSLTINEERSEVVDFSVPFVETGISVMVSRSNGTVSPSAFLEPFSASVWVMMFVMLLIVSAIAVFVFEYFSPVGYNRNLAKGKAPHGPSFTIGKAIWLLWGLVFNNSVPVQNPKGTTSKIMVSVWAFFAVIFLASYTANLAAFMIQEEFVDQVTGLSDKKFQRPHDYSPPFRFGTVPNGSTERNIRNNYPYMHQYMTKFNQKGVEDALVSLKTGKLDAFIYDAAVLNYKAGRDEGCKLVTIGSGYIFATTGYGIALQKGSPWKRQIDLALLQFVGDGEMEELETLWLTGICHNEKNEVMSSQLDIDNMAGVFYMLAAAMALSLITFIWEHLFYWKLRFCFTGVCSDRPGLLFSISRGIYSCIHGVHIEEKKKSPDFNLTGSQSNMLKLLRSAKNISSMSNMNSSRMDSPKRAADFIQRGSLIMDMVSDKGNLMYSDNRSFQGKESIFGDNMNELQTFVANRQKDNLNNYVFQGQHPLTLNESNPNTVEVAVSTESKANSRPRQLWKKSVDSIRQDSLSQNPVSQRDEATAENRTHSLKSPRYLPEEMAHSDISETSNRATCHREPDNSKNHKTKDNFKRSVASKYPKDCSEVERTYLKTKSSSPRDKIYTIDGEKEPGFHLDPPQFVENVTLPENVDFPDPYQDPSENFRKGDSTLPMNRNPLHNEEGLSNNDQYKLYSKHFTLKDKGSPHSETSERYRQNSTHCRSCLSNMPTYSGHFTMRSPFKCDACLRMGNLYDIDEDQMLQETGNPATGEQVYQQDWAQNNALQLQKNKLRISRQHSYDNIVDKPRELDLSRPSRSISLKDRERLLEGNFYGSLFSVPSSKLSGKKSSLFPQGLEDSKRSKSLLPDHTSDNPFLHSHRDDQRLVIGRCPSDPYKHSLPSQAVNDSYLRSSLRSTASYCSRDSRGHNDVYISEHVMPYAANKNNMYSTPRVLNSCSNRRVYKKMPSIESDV
- assay_procedure: Automated patch-clamp (QPatch HTX), NMDA receptor GRIN1/2A in HEK 293 cells
- measurement_context: HEK 293 cells stably transfected with GRIN1/2A; 300 μM NMDA + 8 μM glycine; holding potential −80 mV; read-out: AVG_ EC50 2A
Below, each of the molecules is paired with its reported EC50 value.
Give the number; nM is assumed, so skip it.

For orientation, consider the following solved cases.
1) C[C@H](CC1(O)CCC(C)(C)CC1)[C@H]1CC[C@H]2[C@@H]3[C@@H](C)C=C4C[C@@](C)(O)CC[C@]4(C)[C@H]3CC[C@]12C [Compound U6478] : 191
2) CC[C@]1(O)CC[C@@]2(C)C(=C[C@](C)(O)[C@H]3[C@@H]4CC[C@H]([C@H](C)CCC(C)(C)O)[C@@]4(C)CC[C@@H]32)C1 [Compound U6437] : 1620
3) C[C@@H]1C=C2C[C@@](C)(O)CC[C@]2(C)[C@H]2CC[C@]3(C)[C@@H]([C@H](C)CC4(O)CCC(C)(C)CC4)CC[C@H]3[C@H]12 [Compound U6477] : 747

API: the following record is the query input.
Quick one: EC50 of CC[C@]1(O)CC[C@@]2(C)C(=C[C@@H](C)[C@H]3[C@@H]4CC[C@H]([C@H](C)CCC(C)(C)O)[C@@]4(C)CC[C@@H]32)C1 [Compound U6408] ?
230

###

Below, each of the molecules is paired with its reported Emax value.
- measurement_target: NMDA receptor 2B (Homo sapiens (Human), UniProt Q05586+Q13224)
- Sequence (Q13224 27-1484, other chains not shown): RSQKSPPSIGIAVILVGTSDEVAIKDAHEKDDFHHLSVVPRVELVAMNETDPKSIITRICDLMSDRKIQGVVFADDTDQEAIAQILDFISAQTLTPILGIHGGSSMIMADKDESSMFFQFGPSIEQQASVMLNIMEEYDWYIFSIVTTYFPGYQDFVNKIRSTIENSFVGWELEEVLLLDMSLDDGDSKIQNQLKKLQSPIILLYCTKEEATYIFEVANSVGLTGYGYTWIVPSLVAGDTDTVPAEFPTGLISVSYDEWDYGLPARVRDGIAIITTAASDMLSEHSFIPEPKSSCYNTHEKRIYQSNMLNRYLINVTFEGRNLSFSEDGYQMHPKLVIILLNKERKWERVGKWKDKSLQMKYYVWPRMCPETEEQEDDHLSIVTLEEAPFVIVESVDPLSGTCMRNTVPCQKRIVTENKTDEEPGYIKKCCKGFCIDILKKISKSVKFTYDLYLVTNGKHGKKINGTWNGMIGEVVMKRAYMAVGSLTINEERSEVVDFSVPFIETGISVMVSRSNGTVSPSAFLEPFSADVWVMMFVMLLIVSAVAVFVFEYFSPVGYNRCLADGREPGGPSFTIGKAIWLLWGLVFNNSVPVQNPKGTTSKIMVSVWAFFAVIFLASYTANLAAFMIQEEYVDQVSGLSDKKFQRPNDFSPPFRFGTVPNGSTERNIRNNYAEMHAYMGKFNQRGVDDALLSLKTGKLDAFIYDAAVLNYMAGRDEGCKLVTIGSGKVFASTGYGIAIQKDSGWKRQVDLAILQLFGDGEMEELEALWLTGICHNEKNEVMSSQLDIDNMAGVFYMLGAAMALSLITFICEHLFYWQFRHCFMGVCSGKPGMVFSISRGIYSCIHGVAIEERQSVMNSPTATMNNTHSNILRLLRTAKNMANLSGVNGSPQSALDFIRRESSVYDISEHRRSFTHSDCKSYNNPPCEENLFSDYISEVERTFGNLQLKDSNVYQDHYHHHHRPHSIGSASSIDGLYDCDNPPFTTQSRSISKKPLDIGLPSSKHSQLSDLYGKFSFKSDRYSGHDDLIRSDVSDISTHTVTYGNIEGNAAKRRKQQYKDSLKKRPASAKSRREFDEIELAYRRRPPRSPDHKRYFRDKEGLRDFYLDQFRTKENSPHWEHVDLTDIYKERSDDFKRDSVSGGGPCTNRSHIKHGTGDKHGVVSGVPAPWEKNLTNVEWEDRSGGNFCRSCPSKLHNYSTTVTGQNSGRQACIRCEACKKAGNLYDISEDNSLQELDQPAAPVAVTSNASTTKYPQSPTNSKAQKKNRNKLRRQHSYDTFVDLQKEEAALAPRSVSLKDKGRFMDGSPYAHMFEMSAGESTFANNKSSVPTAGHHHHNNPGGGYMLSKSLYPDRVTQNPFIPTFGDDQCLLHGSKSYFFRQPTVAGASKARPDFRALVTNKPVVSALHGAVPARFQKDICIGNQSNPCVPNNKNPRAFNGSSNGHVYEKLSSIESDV
- assay_procedure: Automated patch-clamp (QPatch HTX), NMDA receptor 2B subtype
- Assay type: cell-based
- measurement_context: read-out: AVG_ EMAX 2B %
Give the number; % is assumed, so skip it.

For orientation, consider the following solved cases.
1. CC[C@]1(O)CC[C@@]2(C)C(=C[C@@](C)(O)[C@H]3[C@@H]4CC[C@H]([C@H](C)CCC(C)(C)O)[C@@]4(C)CC[C@@H]32)C1 : 15
2. CC[C@]1(O)CC[C@@]2(C)C(=C[C@@H](O)[C@H]3[C@@H]4CC[C@H]([C@H](C)CCC(C)(C)O)[C@@]4(C)CC[C@@H]32)C1 : 111

API: the following record is the query input.
Please tell me: Emax of CC[C@]1(O)CC[C@@]2(C)C(=C[C@H](C)[C@H]3[C@@H]4CC[C@H]([C@H](C)CCC(C)(C)O)[C@@]4(C)CC[C@@H]32)C1 , system NMDA receptor 2B (Homo sapiens (Human), UniProt Q05586+Q13224)?
71

Measured values drawn from patent US11149056B2 for this set.
